Where a SMILES comes first, the peptide text is derived from it. [ ]: non-standard residue; d: D form. The star is where a group is joined. dPhe(4-Cl) = N[C@H](Cc1ccc(Cl)cc1)C(=O)O; dPhe(4-F) = N[C@H](Cc1ccc(F)cc1)C(=O)O; d2Nal = N[C@H](Cc1ccc2ccccc2c1)C(=O)O; d2Thi = N[C@H](Cc1cccs1)C(=O)O; dNle = CCCC[C@@H](N)C(=O)O; Morpholide = C1CN(*)CCO1; NHCH2CH2OH = OCCN*
Ki tested on UniProtKB P35372: recorded values
Sequence (P35372 whole entry): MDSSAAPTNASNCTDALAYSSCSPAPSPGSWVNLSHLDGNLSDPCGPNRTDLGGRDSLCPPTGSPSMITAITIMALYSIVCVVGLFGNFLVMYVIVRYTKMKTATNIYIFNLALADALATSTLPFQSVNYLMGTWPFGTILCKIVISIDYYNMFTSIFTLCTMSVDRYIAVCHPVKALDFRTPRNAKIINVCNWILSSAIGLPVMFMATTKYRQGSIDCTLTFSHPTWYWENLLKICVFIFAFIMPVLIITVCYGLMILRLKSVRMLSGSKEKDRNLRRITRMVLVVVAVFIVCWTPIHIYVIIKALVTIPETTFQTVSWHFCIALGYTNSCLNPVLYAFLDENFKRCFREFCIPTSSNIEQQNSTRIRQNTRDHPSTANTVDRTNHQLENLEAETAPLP
A number alone suffices; assume nM.

Consider the reported Ki for these molecules:
CC(C)C[C@@H](NC(=O)[C@@H](Cc1ccc2ccccc2c1)NC(=O)[C@H](N)Cc1cccs1)C(=O)N[C@H](CCCNC(=N)N)C(=O)N1CCOCC1 [Peptide 63, H-D-Ala(2Thi)-D-2Nal-D-Leu-D-Arg-Mor] (H-[d2Thi][d2Nal][dL][dR]-Morpholide)	3170
CC(C)C[C@@H](NC(=O)[C@@H](Cc1ccc(Cl)cc1)NC(=O)[C@H](N)Cc1ccc(F)cc1)C(=O)N[C@H](CCCNC(=N)N)C(=O)N1CCOCC1 [Peptide 65, H-D-4Fpa-D-4Cpa-D-Leu-D-Arg-Mor] (H-[dPhe(4-F)][dPhe(4-Cl)][dL][dR]-Morpholide)	1900
CC(C)C[C@@H](NC(=O)[C@@H](Cc1ccc(Cl)cc1)NC(=O)[C@H](N)Cc1cccs1)C(=O)N[C@H](CCCNC(=N)N)C(=O)N1CCOCC1 [Peptide 59, H-D-Ala(2Thi)-D-4Cpa-D-Leu-D-Arg-Mor] (H-[d2Thi][dPhe(4-Cl)][dL][dR]-Morpholide)	3360

Next, consider the following molecule.
## Task So what does the record say about Ki for CCCC[C@@H](NC(=O)[C@@H](Cc1ccccc1)NC(=O)[C@H](N)Cc1ccccc1)C(=O)N[C@H](CCCNC(=N)N)C(=O)NCCO [Peptide 9, H-D-Phe-D-Phe-D-Nle-D-Arg-NHhEt] (H-[dF][dF][dNle][dR]-NHCH2CH2OH) ?
## Result 1010
